- Tested on: HOP-92
- ASSAY: NCI tumour cell line growth inhibition, 48 h
Activity calls are given as the source filed them. Cut-off read from the data, not from the text of the source: active = GI50 up to about 1.1 µM and inactive = higher.
ASSAY_METRIC: GI50

Known results for molecules:
>>> reported_result("C/C(=C1/N=C(c2ccccc2)OC1=O)c1ccc(C)cc1")
"> 100 µM (inactive)"
>>> reported_result("O=C(O)Cc1ccc(Oc2nc3ccccc3nc2C(=O)O)cc1")
"79.1 µM (inactive)"
>>> reported_result("Cc1oc2c(c1C(=O)c1ccccc1)C(=O)c1ccccc1C2=O")
"2.21 µM (inactive)"
>>> reported_result("CCOC(=O)C1=C(Nc2ccc(NC3=C(C(=O)OCC)C(=O)CS3)cc2)SCC1=O")
"24.6 µM (inactive)"
>>> reported_result("COc1ccccc1NC(=O)CSC(N)=O")
"> 100 µM (inactive)"

Give one value of GI50 per listed molecule.
1. CCOC(=O)C(NNS(=O)(=O)c1ccc(C)cc1)S(=O)(=O)C(F)(F)C(F)(F)C(F)(F)C(F)(F)F (stereo not given)
2. O=C(O)c1ccc(/C=N\N(CCO)C2=NCCN2)cc1
3. C#CCC[C@@H]1O[C@@]1(C)CC/C=C(\C)CC/C=C/C=O
4. Nc1cc(C(=O)O)nc(O)n1
5. Cc1cccc2c(N)c3cccc(C(=O)NCC[N+](C)(C)Cc4ccc([N+](=O)[O-])s4)c3nc12
6. COC(=O)C(=O)C(C(=O)C(=O)Nc1nc2ccc(C)cc2s1)c1nc2ccc([N+](=O)[O-])cc2nc1O (stereo not given)
7. NC(=S)N/N=C(\CC1OC(=O)c2ccccc21)c1ccc(Cl)cc1 (stereo not given)
8. COCCOC(=O)C1=C(O)c2ccccc2S(=O)(=O)N1C

1. 54.7 µM (inactive)
2. > 100 µM (inactive)
3. 28.5 µM (inactive)
4. > 100 µM (inactive)
5. 16 µM (inactive)
6. 65.2 µM (inactive)
7. 23.1 µM (inactive)
8. > 100 µM (inactive)

Give one value of GI50 per listed molecule.
1. NC(CCc1nc(-c2ccc(Cl)cc2)cs1)C(=O)O (stereo not given)
2. Cc1oc2c(C)c3oc(=O)cc(C)c3cc2c1CN1C(=O)C2OCCOCCOCCOCCOCCO[C@H]2C1=O (stereo not given in full)

1: > 73.5 µM (inactive); 2: > 100 µM (inactive)
